Molecular target: PI3-kinase p110-delta/p85-alpha (Homo sapiens)
Sequence (P27986 whole entry): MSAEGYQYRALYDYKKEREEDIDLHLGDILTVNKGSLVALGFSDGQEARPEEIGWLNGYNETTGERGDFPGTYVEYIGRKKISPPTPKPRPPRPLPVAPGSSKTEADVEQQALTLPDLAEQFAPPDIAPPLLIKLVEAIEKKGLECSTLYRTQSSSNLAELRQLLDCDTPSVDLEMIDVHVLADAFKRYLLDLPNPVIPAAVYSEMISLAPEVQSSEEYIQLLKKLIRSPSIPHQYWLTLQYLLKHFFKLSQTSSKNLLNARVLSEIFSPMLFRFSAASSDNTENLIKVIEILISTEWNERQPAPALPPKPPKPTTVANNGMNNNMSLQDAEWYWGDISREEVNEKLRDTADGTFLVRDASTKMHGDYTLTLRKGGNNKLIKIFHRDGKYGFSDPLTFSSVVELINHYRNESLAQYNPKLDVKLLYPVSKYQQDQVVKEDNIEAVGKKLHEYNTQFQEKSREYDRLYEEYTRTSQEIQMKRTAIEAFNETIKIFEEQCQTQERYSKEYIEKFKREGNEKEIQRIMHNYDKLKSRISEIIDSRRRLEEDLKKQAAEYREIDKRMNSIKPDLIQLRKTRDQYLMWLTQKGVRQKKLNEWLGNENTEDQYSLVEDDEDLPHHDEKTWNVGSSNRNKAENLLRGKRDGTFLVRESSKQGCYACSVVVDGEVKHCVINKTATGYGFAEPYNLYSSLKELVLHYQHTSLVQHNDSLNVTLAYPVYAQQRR
Sequence (O00329 whole entry): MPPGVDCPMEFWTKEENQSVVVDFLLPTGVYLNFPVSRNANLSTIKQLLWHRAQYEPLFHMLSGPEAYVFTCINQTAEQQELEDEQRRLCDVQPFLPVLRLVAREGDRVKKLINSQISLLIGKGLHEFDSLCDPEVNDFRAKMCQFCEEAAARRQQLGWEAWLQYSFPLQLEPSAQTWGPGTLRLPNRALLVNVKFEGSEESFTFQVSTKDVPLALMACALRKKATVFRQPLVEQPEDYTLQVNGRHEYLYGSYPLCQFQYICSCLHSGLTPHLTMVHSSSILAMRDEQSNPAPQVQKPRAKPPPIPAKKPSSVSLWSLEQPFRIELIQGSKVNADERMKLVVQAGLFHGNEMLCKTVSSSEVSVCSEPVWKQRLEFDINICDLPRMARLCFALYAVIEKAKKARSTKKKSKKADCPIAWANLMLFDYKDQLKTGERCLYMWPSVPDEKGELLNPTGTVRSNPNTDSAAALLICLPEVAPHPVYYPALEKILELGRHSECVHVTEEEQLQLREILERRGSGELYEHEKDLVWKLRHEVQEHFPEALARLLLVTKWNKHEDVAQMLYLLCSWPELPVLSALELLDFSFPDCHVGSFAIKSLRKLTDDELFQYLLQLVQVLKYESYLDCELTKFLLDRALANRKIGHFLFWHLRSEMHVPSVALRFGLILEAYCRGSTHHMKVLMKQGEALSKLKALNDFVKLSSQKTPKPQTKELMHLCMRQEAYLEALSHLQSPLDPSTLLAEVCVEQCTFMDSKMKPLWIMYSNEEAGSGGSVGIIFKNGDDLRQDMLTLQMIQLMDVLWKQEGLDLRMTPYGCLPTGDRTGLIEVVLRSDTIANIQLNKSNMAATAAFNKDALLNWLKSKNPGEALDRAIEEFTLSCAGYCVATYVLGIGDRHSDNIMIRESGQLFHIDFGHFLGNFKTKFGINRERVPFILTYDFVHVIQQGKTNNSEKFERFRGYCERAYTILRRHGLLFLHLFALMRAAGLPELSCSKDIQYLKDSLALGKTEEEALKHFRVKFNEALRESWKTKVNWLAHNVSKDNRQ
Assay: Inhibition of N-terminal His6-tagged recombinant full length human p110delta/untagged recombinant full length human p85alpha expressed in baculovirus infected Sf21 insect cells using PIP2 as substrate preincubated for 15 mins followed by substrate addition and measured after 1 hr by HTRF assay

{"columns": ["Molecule", "Test Target", "IC50, nM"],
 "data": [
  ["CCn1ncc(-c2nc3c(NC4CCN(CC(C)C)C4=O)ncnc3n2C)c1C (racemic)", "PI3-kinase p110-delta/p85-alpha (Homo sapiens)", 1350],
  ["CCn1ncc(-c2nc3c(N[C@H]4CCN(C(=O)C5CCOCC5)C4)ncnc3n2C)c1C", "PI3-kinase p110-delta/p85-alpha (Homo sapiens)", 0.5],
  ["CCn1ncc(-c2nc3c(N[C@H]4CC[C@@H](C(=O)N5CCOCC5)C4)ncnc3n2C)c1C", "PI3-kinase p110-delta/p85-alpha (Homo sapiens)", 11],
  ["CC[C@H](Nc1ncnc2c1nc(-c1cnn(CC)c1C)n2C)C(=O)N(C)C", "PI3-kinase p110-delta/p85-alpha (Homo sapiens)", 34],
  ["CCn1ncc(-c2nc3c(O[C@H]4CCN(C(=O)C5CC5)C4)ncnc3n2C)c1C", "PI3-kinase p110-delta/p85-alpha (Homo sapiens)", 5.3],
  ["CCn1ncc(-c2nc3c(N[C@H](C)C(=O)N4CCOCC4)ncnc3n2C)c1C", "PI3-kinase p110-delta/p85-alpha (Homo sapiens)", 1080],
  ["CCn1ncc(-c2nc3c(N[C@H]4CCN(C(=O)C5CC5)C4)ncnc3n2C)c1C", "PI3-kinase p110-delta/p85-alpha (Homo sapiens)", 0.9],
  ["CCn1ncc(-c2nc3c(N[C@@H](C)C(=O)N4CCOCC4)ncnc3n2C)c1C", "PI3-kinase p110-delta/p85-alpha (Homo sapiens)", 24],
  ["CCn1ncc(-c2nc3c(N4CCC(n5c(=O)[nH]c6ncccc65)CC4)ncnc3n2C)c1C", "PI3-kinase p110-delta/p85-alpha (Homo sapiens)", 6.3]
]}
